target: Aurora kinase A (Homo sapiens) (UniProt O14965); assay: Inhibition of AurA at 30 uM by microfluidic mobility shift assay
Sequence (O14965 whole entry): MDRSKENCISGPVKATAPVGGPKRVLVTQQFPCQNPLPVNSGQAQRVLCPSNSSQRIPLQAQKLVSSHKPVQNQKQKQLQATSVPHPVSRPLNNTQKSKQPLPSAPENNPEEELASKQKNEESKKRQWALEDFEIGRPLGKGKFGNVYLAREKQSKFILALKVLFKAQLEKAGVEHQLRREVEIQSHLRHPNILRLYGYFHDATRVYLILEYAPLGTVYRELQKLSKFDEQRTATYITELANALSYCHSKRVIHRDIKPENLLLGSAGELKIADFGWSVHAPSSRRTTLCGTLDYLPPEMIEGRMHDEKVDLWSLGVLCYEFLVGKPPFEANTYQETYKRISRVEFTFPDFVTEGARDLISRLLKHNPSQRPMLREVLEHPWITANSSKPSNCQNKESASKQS
measure: inhibition (%)

Known inhibition results, listed for orientation:
• Nc1n[nH]c2cc(-c3ccccn3)[nH]c(=O)c12 = 38
• COc1ccc(-c2cc3c(c(N)nn3C)c(=O)[nH]2)cc1 = 33

[I] Nc1c2c(=O)[nH]c(-c3ccccn3)cc2nn1-c1ccccc1
[II] O=S(=O)(NCCNC/C=C/c1ccc(Br)cc1)c1cccc2cnccc12
[III] Cc1nc(N)c2c(=O)[nH]c(C)cc2n1
Q: Arrange items by their inhibition values in increasing order. Record the ranking as a list of labels in the requested order.
Result: III, I, II
(III: 3%, I: 30%, II: 71%)

* * *

molecular target: Proto-oncogene tyrosine-protein kinase Src (Homo sapiens, UniProt P12931); assay: Inhibition of SRC at 30 uM by microfluidic mobility shift assay
Sequence (P12931 2-536 limits assumed): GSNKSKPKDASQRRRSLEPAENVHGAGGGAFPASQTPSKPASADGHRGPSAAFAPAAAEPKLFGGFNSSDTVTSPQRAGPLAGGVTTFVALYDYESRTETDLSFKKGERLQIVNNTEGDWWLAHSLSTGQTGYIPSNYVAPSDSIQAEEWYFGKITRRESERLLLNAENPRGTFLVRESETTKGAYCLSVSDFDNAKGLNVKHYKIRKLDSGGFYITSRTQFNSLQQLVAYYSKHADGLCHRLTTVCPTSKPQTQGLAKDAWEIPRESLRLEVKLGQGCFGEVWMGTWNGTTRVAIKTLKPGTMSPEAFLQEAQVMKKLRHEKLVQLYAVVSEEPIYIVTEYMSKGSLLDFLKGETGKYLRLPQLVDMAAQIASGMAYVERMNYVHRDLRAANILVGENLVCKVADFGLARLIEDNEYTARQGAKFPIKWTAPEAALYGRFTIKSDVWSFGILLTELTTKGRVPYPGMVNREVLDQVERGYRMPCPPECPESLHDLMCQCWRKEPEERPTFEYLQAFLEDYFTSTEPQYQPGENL
measure: inhibition (%)

Known inhibition results, listed for orientation:
• Nc1c2c(=O)[nH]c(-c3ccccn3)cc2nn1-c1ccccc1 = 98
• Cc1nc(N)c2c(=O)[nH]c(C)cc2n1 = 9
• Nc1n[nH]c2c3c([nH]c(=O)c12)CCCC3 = 6
• CC(C)(C)c1cc2[nH]nc(N)c2c(=O)[nH]1 = 58
• Cc1cc2c(c(N)nn2C)c(=O)[nH]1 = 9

[A] CC(=O)Nc1nn(C)c2cc(-c3ccc(N4CCN(C)CC4)cc3)[nH]c(=O)c12
[B] Cc1cc2nc(-c3ccccc3)nc(N)c2c(=O)[nH]1
Q: Sort A and B by inhibition descending and give the first. Record your answer as the label of the chosen record.
Result: B

* * *

target: Tyrosine-protein kinase ABL1 (Homo sapiens, UniProt P00519); assay: Inhibition of ABL at 30 uM by microfluidic mobility shift assay
Sequence (P00519 whole entry): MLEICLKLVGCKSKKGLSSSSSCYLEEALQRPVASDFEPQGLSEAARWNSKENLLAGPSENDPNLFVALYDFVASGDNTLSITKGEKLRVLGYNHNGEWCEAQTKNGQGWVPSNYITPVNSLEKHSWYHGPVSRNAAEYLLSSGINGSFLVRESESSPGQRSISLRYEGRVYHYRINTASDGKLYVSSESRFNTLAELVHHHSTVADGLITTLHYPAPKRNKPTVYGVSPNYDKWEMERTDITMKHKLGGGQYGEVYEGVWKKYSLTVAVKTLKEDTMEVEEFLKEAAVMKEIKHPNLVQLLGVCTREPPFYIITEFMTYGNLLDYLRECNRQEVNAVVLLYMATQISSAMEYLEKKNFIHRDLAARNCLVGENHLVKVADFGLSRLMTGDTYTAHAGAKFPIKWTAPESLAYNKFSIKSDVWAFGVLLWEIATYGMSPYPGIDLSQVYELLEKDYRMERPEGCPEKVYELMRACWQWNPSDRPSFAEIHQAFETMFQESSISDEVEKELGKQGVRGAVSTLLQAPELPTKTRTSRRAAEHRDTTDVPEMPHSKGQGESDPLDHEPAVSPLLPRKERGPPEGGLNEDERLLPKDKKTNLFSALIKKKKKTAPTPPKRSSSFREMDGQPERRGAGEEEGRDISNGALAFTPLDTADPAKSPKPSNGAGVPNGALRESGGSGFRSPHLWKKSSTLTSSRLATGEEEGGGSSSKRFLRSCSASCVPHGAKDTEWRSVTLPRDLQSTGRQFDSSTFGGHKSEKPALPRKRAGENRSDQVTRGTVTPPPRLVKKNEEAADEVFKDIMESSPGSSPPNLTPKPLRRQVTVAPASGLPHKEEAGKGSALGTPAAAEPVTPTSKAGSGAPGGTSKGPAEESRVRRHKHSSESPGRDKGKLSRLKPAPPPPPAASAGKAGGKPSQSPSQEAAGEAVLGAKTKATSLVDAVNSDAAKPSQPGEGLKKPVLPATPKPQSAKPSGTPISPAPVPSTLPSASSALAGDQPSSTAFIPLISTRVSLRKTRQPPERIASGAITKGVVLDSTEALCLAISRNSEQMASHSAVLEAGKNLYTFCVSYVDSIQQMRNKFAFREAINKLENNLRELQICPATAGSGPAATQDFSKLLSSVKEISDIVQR
measure: inhibition (%)

- Nc1n[nH]c2c3c([nH]c(=O)c12)CCCC3: 0

[A] Cn1nc(N)c2cnc(-c3ccccc3)cc21
[B] Cc1cc2nc(-c3ccccc3)nc(N)c2c(=O)[nH]1
Q: Sort A and B by inhibition descending and give the first. Record your answer as the label of the chosen record.
Result: B
(B: 39%, A: 10%)

[a] CC(C)(C)c1cc2[nH]nc(N)c2c(=O)[nH]1
[b] Nc1n[nH]c2cc(-c3cccs3)[nH]c(=O)c12
Q: Sort a and b by inhibition descending and give the first. Record your answer as the label of the chosen record.
Result: b

[A] COc1ccc(-c2cc3c(c(N)nn3C)c(=O)[nH]2)cc1
[B] Cc1cc2nn(-c3ccccc3)c(N)c2c(=O)[nH]1
Q: Form: Entry with minimum inhibition (choose one): A / B Record your answer as the label of the chosen record.
Result: B
(B: 20%, A: 53%)

[A] COc1ccc(-c2cc3nn(-c4ccccc4)c(N)c3c(=O)[nH]2)cc1
[B] Cc1cc2c(c(N)nn2C)c(N2CCCCC2)n1
[C] CC(C)(C)c1cc2nn(-c3ccccc3)c(N)c2c(=O)[nH]1
[D] COc1cccc(-c2cc3[nH]nc(N)c3c(=O)[nH]2)c1
Q: Parameters: sort_field (inhibition), sort_dir (desc). Record the ranking as a list of labels in the requested order.
Result: A, D, B, C

[I] Cc1cc2[nH]nc(N)c2c(N2CCOCC2)n1
[II] Nc1c2c(=O)[nH]c(-c3ccccn3)cc2nn1-c1ccccc1
[III] Cc1cc2c(c(N)nn2C)c(N2CC[C@H](O)C2)n1
Q: Parameters: sort_field (inhibition), sort_dir (desc). Record the ranking as a list of labels in the requested order.
Result: II, I, III

[I] O=S(=O)(NCCNC/C=C/c1ccc(Br)cc1)c1cccc2cnccc12
[II] Cn1nc2c3c(nc(-c4ccccc4)cc31)NCC(=O)N2
Q: Form: Entry with minimum inhibition (choose one): I / II Record your answer as the label of the chosen record.
Result: II
(II: 4%, I: 8%)

* * *

target: Serine/threonine-protein kinase Chk1 (Homo sapiens) (UniProt O14757); test: Inhibition of CHK1 at 30 uM by microfluidic mobility shift assay
Sequence (O14757 whole entry): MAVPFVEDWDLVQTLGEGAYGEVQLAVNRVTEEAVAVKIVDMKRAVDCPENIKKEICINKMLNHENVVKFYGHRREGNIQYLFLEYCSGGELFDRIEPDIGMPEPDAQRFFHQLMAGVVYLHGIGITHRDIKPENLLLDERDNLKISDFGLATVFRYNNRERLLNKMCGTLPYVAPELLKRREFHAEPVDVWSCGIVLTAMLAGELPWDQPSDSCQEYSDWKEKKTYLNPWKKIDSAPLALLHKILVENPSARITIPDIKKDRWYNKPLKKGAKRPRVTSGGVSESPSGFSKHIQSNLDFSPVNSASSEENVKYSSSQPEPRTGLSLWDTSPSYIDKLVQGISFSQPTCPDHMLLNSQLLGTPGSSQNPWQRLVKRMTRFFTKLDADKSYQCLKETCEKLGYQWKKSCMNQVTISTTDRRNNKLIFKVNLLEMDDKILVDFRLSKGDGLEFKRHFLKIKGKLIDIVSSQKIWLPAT
measure: inhibition (%)

Known inhibition results, listed for orientation:
- Nc1c2c(=O)[nH]c(-c3ccccc3)cc2nn1-c1ccccn1: 2
- Cc1cc2c(c(NS(C)(=O)=O)nn2C)c(=O)[nH]1: 7
- COc1ccc(-c2c(C)[nH]c(=O)c3c(N)nn(C)c23)cc1: 11

[1] Cn1nc(N)c2cnc(-c3ccccc3)cc21
[2] COc1cccc(-c2cc3c(c(N)nn3C)c(=O)[nH]2)c1
[3] COC(=O)CCc1c(C)[nH]c(=O)c2c(N)nn(C)c12
[4] Nc1n[nH]c2c3c([nH]c(=O)c12)CCCC3
[5] COCCNc1nc(-c2ccccc2)cc2c1c(N)nn2C
Q: Arrange items by their inhibition values in increasing order. Record the ranking as a list of labels in the requested order.
Result: 1, 3, 5, 4, 2

* * *

biological target: Tyrosine-protein kinase Fyn (Homo sapiens, UniProt P06241); experiment: Inhibition of FYN at 30 uM by microfluidic mobility shift assay
Sequence (P06241 2-537 limits assumed): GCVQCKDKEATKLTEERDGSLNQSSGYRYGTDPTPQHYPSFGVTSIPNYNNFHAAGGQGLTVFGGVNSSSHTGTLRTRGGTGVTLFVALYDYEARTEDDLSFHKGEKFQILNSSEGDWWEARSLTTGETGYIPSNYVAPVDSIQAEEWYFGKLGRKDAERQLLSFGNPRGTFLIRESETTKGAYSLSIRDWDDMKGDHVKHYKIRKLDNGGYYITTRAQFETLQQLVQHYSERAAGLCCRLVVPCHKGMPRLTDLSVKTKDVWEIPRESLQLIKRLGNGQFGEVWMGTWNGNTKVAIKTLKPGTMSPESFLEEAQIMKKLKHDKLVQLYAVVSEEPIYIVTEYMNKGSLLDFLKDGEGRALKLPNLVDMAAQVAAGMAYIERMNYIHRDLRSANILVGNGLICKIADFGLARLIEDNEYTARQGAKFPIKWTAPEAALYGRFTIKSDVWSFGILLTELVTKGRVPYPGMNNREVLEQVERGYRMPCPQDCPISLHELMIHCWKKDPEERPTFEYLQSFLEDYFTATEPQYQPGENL
measure: inhibition (%)

Known inhibition results, listed for orientation:
- COCCNc1nc(-c2ccccc2)cc2c1c(N)nn2C: 0
- Cn1nc(N)c2c(=O)[nH]c(-c3ccccn3)cc21: 24

[a] CC(=O)Nc1nn(C)c2cc(-c3ccccc3)[nH]c(=O)c12
[b] Cn1nc2c3c(nc(-c4ccccc4)cc31)NCC(=O)N2
Q: Form: Entry with minimum inhibition (choose one): a / b Record your answer as the label of the chosen record.
Result: b
(b: 12%, a: 21%)

* * *

target: Glycogen synthase kinase-3 beta (Homo sapiens); assay: Inhibition of GSK3B at 30 uM by microfluidic mobility shift assay
measure: inhibition (%)

• COCCNc1nc(-c2ccccc2)cc2c1c(N)nn2C = 3

[P] Cn1nc(N)c2cnc(-c3ccccc3)cc21
[Q] Cc1cc2c(c(N)nn2C)c(N2CC[C@H](O)C2)n1
Q: Sort P and Q by inhibition descending and give the first. Record your answer as the label of the chosen record.
Result: P

* * *

target: Protein kinase C zeta type (Homo sapiens) (UniProt Q05513); assay: Inhibition of PKCz at 30 uM by microfluidic mobility shift assay
Sequence (Q05513 whole entry): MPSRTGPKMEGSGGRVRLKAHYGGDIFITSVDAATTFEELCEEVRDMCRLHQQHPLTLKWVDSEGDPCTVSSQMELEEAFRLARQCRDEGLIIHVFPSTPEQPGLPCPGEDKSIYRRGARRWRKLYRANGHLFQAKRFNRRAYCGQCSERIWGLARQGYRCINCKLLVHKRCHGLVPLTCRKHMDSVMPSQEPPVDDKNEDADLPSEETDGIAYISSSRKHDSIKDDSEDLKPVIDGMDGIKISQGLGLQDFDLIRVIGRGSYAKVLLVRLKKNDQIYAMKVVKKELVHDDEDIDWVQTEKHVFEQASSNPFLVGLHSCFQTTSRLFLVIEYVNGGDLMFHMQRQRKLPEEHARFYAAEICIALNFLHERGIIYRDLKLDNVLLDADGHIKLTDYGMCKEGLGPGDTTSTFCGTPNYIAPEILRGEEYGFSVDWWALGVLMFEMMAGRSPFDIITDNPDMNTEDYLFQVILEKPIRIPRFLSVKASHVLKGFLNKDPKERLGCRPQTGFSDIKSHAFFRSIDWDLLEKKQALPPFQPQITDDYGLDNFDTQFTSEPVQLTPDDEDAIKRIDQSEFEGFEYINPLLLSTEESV
measure: inhibition (%)

[A] Nc1n[nH]c2cc(-c3ccncc3)[nH]c(=O)c12
[B] Cc1cc2[nH]nc(N)c2c(N2CCCCC2)n1
[C] COc1ccccc1-c1cc2nn(-c3ccccc3)c(N)c2c(=O)[nH]1
Q: Ordering criterion: inhibition; begin with the maximum. Record the ranking as a list of labels in the requested order.
Result: B, A, C

[a] Cc1[nH]c(=O)c2c(N)n(-c3ccccc3)nc2c1-c1ccccc1
[b] CC(C)(C)c1cc2[nH]nc(N)c2c(=O)[nH]1
Q: Sort a and b by inhibition descending and give the first. Record your answer as the label of the chosen record.
Result: a

* * *

target: Ribosomal protein S6 kinase alpha-5 (Homo sapiens); test: Inhibition of MSK1 at 30 uM by microfluidic mobility shift assay
measure: inhibition (%)

- COc1cccc(-c2cc3[nH]nc(N)c3c(=O)[nH]2)c1: 49
- CC(C)(C)c1cc2nn(-c3ccccc3)c(N)c2c(=O)[nH]1: -1
- COCCNc1nc(C)cc2c1c(N)nn2C: 0
- Cc1nc(N)c2c(=O)[nH]c(C)cc2n1: 0
- COc1ccc(-c2cc3[nH]nc(N)c3c(=O)[nH]2)cc1: 62

[1] COc1ccc(-c2cc3nn(-c4ccccc4)c(N)c3c(=O)[nH]2)cc1
[2] CN1CCN(c2ccc(-c3cc4[nH]nc(N)c4c(=O)[nH]3)cc2)CC1
[3] COc1ccc(S(=O)(=O)Nc2nn(C)c3cc(C)[nH]c(=O)c23)c(OC)c1
Q: Parameters: sort_field (inhibition), sort_dir (desc). Record the ranking as a list of labels in the requested order.
Result: 2, 1, 3

* * *

biological target: RAC-alpha serine/threonine-protein kinase (Homo sapiens); experiment: Inhibition of AKT1 at 30 uM by microfluidic mobility shift assay
measure: inhibition (%)

[a] Nc1n[nH]c2cc(-c3ccncc3)[nH]c(=O)c12
[b] Cc1nc(N)c2c(=O)[nH]c(C)cc2n1
Q: Form: Entry with minimum inhibition (choose one): a / b Record your answer as the label of the chosen record.
Result: b

[P] Cc1cc2c(c(N)nn2C)c(=O)[nH]1
[Q] Cc1cc2nn(-c3ccccc3)c(N)c2c(N2CCCCC2)n1
[R] Nc1n[nH]c2cc(-c3ccc(N4CCOCC4)cc3)[nH]c(=O)c12
Q: Parameters: sort_field (inhibition), sort_dir (desc). Record the ranking as a list of labels in the requested order.
Result: P, Q, R
(P: 11%, Q: 1%, R: -1%)

* * *

test: Inhibition of PKA at 30 uM by microfluidic mobility shift assay
measure: inhibition (%)

Known inhibition results, listed for orientation:
• Nc1n[nH]c2cc(-c3cccnc3)[nH]c(=O)c12 = 35
• COc1ccc(-c2cc3c(c(N)nn3C)c(=O)[nH]2)cc1 = 8
• Nc1n[nH]c2cc(-c3ccccn3)[nH]c(=O)c12 = 42
• COc1ccc(-c2cc3[nH]nc(N)c3c(=O)[nH]2)cc1 = 82
• Cc1nc(N)c2c(=O)[nH]c(C)cc2n1 = 2
• CC(=O)Nc1nn(C)c2cc(-c3ccc(N4CCN(C)CC4)cc3)[nH]c(=O)c12 = 3
• Cc1cc2nn(-c3ccccc3)c(N)c2c(=O)[nH]1 = -8
• Cc1cc2nn(-c3ccccc3)c(N)c2c(N2CCCCC2)n1 = 2

[P] COc1ccc(-c2cc3nn(-c4ccccc4)c(N)c3c(=O)[nH]2)cc1
[Q] COc1cccc(-c2cc3[nH]nc(N)c3c(=O)[nH]2)c1
[R] COc1ccc(-c2c(C)[nH]c(=O)c3c(N)nn(C)c23)cc1
Q: Parameters: sort_field (inhibition), sort_dir (desc). Record the ranking as a list of labels in the requested order.
Result: Q, R, P

[P] Cn1nc(N)c2cnc(-c3ccccc3)cc21
[Q] Cc1cc2nc(N)nc(N)c2c(=O)[nH]1
Q: Sort P and Q by inhibition descending and give the first. Record your answer as the label of the chosen record.
Result: P
(P: 1%, Q: -1%)

[P] Cc1cc2c(c(N)nn2C)c(=O)[nH]1
[Q] Cc1cc2c(c(N)nn2C)c(N2CCOCC2)n1
Q: Form: Entry with minimum inhibition (choose one): P / Q Record your answer as the label of the chosen record.
Result: P
(P: -3%, Q: -2%)

[A] Nc1n[nH]c2cc(CC3CCNCC3)[nH]c(=O)c12
[B] Cc1cc2[nH]ncc2c(=O)[nH]1
[C] Cc1cc2c(c(NS(C)(=O)=O)nn2C)c(=O)[nH]1
Q: Arrange items by their inhibition values in increasing order. Record the ranking as a list of labels in the requested order.
Result: C, B, A
